The entries below come with measured kon values attached.
Target: pWT PDZ2 L391F (human) (UniProt Q12959)
Sequence (Q12959 311-407, change not shown): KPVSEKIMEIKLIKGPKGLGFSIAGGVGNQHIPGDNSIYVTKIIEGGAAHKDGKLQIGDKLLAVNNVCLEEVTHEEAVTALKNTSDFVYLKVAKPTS
Assay: stopped-flow spectroscopy
Ends that are not written are not given here.
Please give a number only; it is taken to be in M⁻¹ s⁻¹.

Guide cases for kon, answers given:
- BINDER: "Ac-KRKETLV [KRKETLV peptide (C-terminus of neuroepithelial cell-transforming gene 1 protein, Net1)]"
  kon [M⁻¹ s⁻¹]: "7.4e+06"
- BINDER: "Ac-EKKHTLL [EKKHTLL peptide (C-terminus of E9PN86_HUMAN, partial transcript of EIF3M_HUMAN)]"
  kon [M⁻¹ s⁻¹]: "1.1e+07"
- BINDER: "Ac-PGKETQL [PGKETQL peptide (C-terminus of SO1C1_HUMAN)]"
  kon [M⁻¹ s⁻¹]: "2e+07"
- BINDER: "Ac-VSKETPL [VSKETPL peptide (C-terminus of mitogen-activated protein kinase 12, p38γ)]"
  kon [M⁻¹ s⁻¹]: "1.1e+07"
- BINDER: "Ac-RSISTDV [RSISTDV peptide (C-terminus of protein FAM163B)]"
  kon [M⁻¹ s⁻¹]: "2.4e+07"
- BINDER: "Ac-TSRETDL [TSRETDL peptide (C-terminus of potassium voltage-gated channel subfamily A member 5, Kv1.5)]"
  kon [M⁻¹ s⁻¹]: "1.8e+07"
- BINDER: "Ac-YRRESAI [YRRESAI peptide (C-terminus of inward rectifier potassium channel 4, Kir2.3)]"
  kon [M⁻¹ s⁻¹]: "1.9e+07"
- BINDER: "Ac-NSKETVV [NSKETVV peptide (C-terminus of E3 ubiquitin-protein ligase MARCH3)]"
  kon [M⁻¹ s⁻¹]: "1.3e+07"

// next item, kon requested
Prompt: Please report the recorded kon for SARSTDV [SARSTDV peptide (C-terminus of anoctamin-9)] .
Response: 1.8e+07
